# study_system: cynomolgus TIGIT
# Sequence (chain, as listed by the source): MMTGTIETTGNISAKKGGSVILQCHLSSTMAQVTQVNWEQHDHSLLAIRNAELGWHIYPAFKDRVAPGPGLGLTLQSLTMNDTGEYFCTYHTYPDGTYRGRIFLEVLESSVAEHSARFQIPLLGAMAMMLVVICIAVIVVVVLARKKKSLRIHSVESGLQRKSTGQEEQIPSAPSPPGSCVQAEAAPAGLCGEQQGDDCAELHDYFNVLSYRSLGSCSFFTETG
# assay_method_text: Biacore SPR
property_measured: Kd

[[record]]
binder = "58A7.003.008 (antibody, V domains shown) VH: QVQLQESGPGLVKPSETLSLTCTVSGGSISSGGYYWNWIRQPPGKGLEWIGYIYYSGSTFYNPSLKSRVTISVDTSKNQFSLKLSSVTAADTAVYYCARAPRYNWNYGWFDPWGQGTLVTVSS VL: EIVLTQSPGTLSLSPGERATLSCRASQQVSSTYLAWYQQKPGQAPRLLFYGASSRATGIPDRFSRSGSGTDFTLTISRLEPEDFAVYYCQQYDVSPWTFGQGTKVEIKR"
property_measured = "Kd"
result = "9.39 nM"

[[record]]
binder = "66H9.009 (antibody, V domains shown) VH: QVQLQESGPGLVKPSETLSLTCTVSGGSISSVYFYWNWIRQPPGKGLEWIGYIYYSGGTYYNPSLRSRVTISVDTSKNQFSLKLNSVTAADTAVYYCARGSIAAGGGYFYYNDMDVWGQGTTVTVSS VL: EIVLTQSPDFQSVTPKEKVAITCRASQSIGSSLHWYQQKPDQSPKPLIKYVSQSFSGVPSRFSGSGSGTDFTLTINSLEAEDAATYYCHQSSSLPLTFGGGTKVEIKR"
property_measured = "Kd"
result = "34.7 nM"

[[record]]
binder = "43B7.002.015 (antibody, V domains shown) VH: QVQLQESGPGLVKPSETLSLTCTVSGGSISSGGYYWSWIRQHPGKGLEWIGYIYYRGGTYYNPSLRSRVTMSVDTSKNQFSLRLSSVTAADTAVYYCARTIFGVIILDNWGQGTPVTVSS VL: DIQMTQSPSSLSASVGDRVTITCRSSQSISSYLNWYQQKPGRAPKLLIYAASSLQSGVPSRFSGSGSGTDFTLTISSLQPEDFASYYCQQSYTTPPTFGGGTKVEIKR"
property_measured = "Kd"
result = "13 nM"

[[record]]
binder = "55G7.041 (antibody, V domains shown) VH: EVQLVESGGGVVQPGGSLRLSCAASGFTFSSYGMHWVRQAPGKGLEWVALIWFDESNIYYADAVKGRFTISRDNAKNTLYLQMNSLRAEDTAVYFCARGYDLLTGYYNFDFWGQGTLVTVSS VL: QAGLTQPPSVSKGLRQTATLTCTGNANNVGNRGAAWLQQHQGHPPKLLSYRNNNRPSGISERLSASRSGNTASLTITGLQPEDEADYYCSAWDSSLSAWVFGGGTKLTVLG"
property_measured = "Kd"
result = "25 nM"

